I'd be grateful if you could share measured Emax IL2 (% activation) for these entries.
- Test system: primary human T-cells
- Experiment description: IL2 secretion measurements (24 h, CD3-stimulated T-cells, PBS counter screen)
- Type: cell-based
- Measurement parameters: CD3 condition; normalised to DMSO (neutral) and 20 μM reference compound A1 = 100%
Answers are plain numbers, in % activation.

> print(dat)
                                   compound           assay.endpoint  value.reported
1  N[C@H]1CS(=O)(=O)c2ccc(-c3nnc(C4(N)CCCCC4)o3)cc2N(Cc2ccc(-c3noc(C(F)(F)F)n3)cc2)C1=O  Emax IL2 (% activation)             143
2  C[C@@](N)(c1nnc(-c2ccc3c(c2)N(Cc2ccc(-c4noc(C(F)(F)F)n4)cc2)C(=O)[C@@H](N)CS3(=O)=O)o1)C(F)(F)F  Emax IL2 (% activation)             164
3  COc1ccc(-c2ccc(CN3C(=O)[C@@H](N)CS(=O)(=O)c4ccc(-c5nnc(C6(CO)CCCO6)o5)cc43)cc2)cc1 (stereo partly drawn)  Emax IL2 (% activation)              78
4  COc1ccc(-c2ccc(CN3C(=O)[C@@H](N)CS(=O)(=O)c4ccc(-c5nnc(N6CCOC(F)(F)C6)o5)cc43)cc2)cc1  Emax IL2 (% activation)             236
5  N[C@H]1CS(=O)(=O)c2cc(F)c(-c3noc(N4CCOC5(CC5)C4)n3)cc2N(Cc2ccc(-c3noc(C(F)(F)F)n3)nc2)C1=O  Emax IL2 (% activation)              93

Exercise: Identify Emax IL2 (% activation) associated with the compound N[C@H]1CS(=O)(=O)c2ccc(-c3nnc(C(F)C(F)(F)F)o3)cc2N(Cc2ccc(-c3noc(C4CC4)n3)cc2)C1=O (stereo partly drawn)
Key: 67

----------
Assign pEC50 to each entry below.
- System: MV-3 cells
- Experiment description: T-cell - TCB - MV3 killing assay
- Type: cell-based, human
- Measurement parameters: primary human T-cells + MV-3 RFP cells, MCSP-TCB 1.5 pM-5 pM, 120 hours imaging; read-out: MSCP TCB killing MV-3 cells 5 d EC50
Give bare numbers, as −log10 of the molar value.

Some solved entries appear below for comparison.
> print(dat)
                                   compound  value.reported
1  N[C@H]1CS(=O)(=O)c2ccc(-c3nnc(N4CCOC(F)(F)C4)o3)cc2N(Cc2ccc(-c3noc(C(F)(F)F)n3)cc2)C1=O            7.03
2  COc1ccc(-c2ccc(CN3C(=O)[C@@H](N)CS(=O)(=O)c4ccc(-c5nnc(N(C)CC(F)(F)F)o5)cc43)cc2)cc1            6.46
3  N[C@H]1CS(=O)(=O)c2cc(F)c(-c3noc(C4(CO)CCCO4)n3)cc2N(Cc2ccc(-c3noc(C(F)(F)F)n3)cc2)C1=O (stereo partly drawn)            7.54
4  CC(C)(c1nnc(-c2ccc3c(c2)N(Cc2ccc(-c4noc(C(F)(F)F)n4)cc2)C(=O)[C@@H](N)CS3(=O)=O)o1)C(F)(F)F            8.00
5  C[C@@](N)(c1nnc(-c2ccc3c(c2)N(Cc2ccc(-c4noc(C(F)(F)F)n4)cc2)C(=O)[C@@H](N)CS3(=O)=O)o1)C(F)(F)F            7.28

The record that follows has no pEC50 shown yet.
Exercise: Specify measured pEC50 for CC(C)(C#N)c1nnc(-c2ccc3c(c2)N(Cc2ccc(-c4ccc(C(F)(F)F)cn4)cc2)C(=O)[C@@H](N)CS3(=O)=O)o1 .
Key: 6.55
